Parameter Pro: see the listing below.
# Test system: HS-68 and NIH 3T3 cell lines
# experiment-summary: Protein delivery by vector peptides (GFP)
# Format: cell-based
# test-conditions: transfection of GFP; incubated with peptide at a molar ratio of 1:20; 1 h
*1 amine or outer side, *2 acyl side, *3 side chain or, on linkers, in order; H or OH if unused. Cysteamide = C(CS[*:3])N[*:1]
Use % as the unit, but write only the number.

substance	result-units	Pro
KETWWETWWTEWSQPKKKRKV [Pep-2]	%	5

Request the reported Pro associated with Tyr Gly Phe Lys Lys Arg Arg Gln Pro Thr Trp Trp Glu Thr Trp Trp Thr Glu (Ac-YGFKKRRQPTWWETWWTE-Cysteamide) [Pep-1.1-cya] 60

----------
# Test system: HS-68 and NIH 3T3 cell lines
# experiment-summary: Protein delivery by vector peptides (GFP)
# Type: cell-based
# test-conditions: transfection of GFP; incubated with peptide at a molar ratio of 1:20; 1 h
*1 amine or outer side, *2 acyl side, *3 side chain or, on linkers, in order; H or OH if unused. Cysteamide = C(CS[*:3])N[*:1]
reported-endpoint: Pro

substance	Pro
Lys Glu Thr Trp Trp Glu Thr Trp Trp Glu Thr Trp Ser Gln Pro Lys Lys Lys Arg Lys Val (Ac-KETWWETWWETWSQPKKKRKV-Cysteamide) [Pep-2.3-cya]	50-70%
Lys Lys Lys Arg Lys Val Lys Pro Glu Thr Trp Trp Glu Thr Trp Trp Glu Thr Val (Ac-KKKRKVKPETWWETWWETV-Cysteamide) [Pep-2.7-cya]	10-20%

Here is another substance to look at.
Could you share which Pro value was measured for Tyr Gly Phe Lys Lys Arg Arg Gln Thr Trp Trp Glu Thr Trp Trp Thr Glu (Ac-YGFKKRRQTWWETWWTE-Cysteamide) [Pep-1.2-cya] ? 80-90%
